Biological target: Beta-secretase 1 (Homo sapiens)
Sequence (P56817 whole entry): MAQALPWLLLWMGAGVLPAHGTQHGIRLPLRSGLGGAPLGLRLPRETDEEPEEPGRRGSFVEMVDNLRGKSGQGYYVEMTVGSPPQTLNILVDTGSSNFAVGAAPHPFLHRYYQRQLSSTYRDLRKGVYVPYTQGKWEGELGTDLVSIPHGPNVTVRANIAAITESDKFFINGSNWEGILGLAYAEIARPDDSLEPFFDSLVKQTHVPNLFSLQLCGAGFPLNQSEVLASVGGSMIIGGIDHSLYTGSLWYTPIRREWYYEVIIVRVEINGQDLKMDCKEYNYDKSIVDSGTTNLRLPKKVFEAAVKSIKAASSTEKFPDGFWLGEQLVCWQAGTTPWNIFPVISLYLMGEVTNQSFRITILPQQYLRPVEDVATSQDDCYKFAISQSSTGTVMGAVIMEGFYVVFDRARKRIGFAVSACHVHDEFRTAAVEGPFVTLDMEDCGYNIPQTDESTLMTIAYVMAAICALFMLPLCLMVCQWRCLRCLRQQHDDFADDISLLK
Experiment: Inhibition of BACE1 in human SKNBE2 cells transfected with APP695 protein assessed as reduction in amyloid beta (1 to 42) levels after 18 hrs by sandwich alphalisa assay
Type: cell-based
pIC50: −log10 of the molar value.
assayMetric: pIC50

Here are 3 compounds together with their reported answers.
> print(dat)
                                 smilescode  experimentalvalue
1  C[C@]1(c2cc(NC(=O)c3ccc(C#N)cn3)ccc2F)N=C(N)CO[C@H]1C(F)(F)F               8.22
2  C[C@]1(c2cc(NC(=O)c3cnc(OCC(F)(F)F)cn3)ccc2F)N=C(N)CO[C@H]1C(F)(F)F               7.68
3  C[C@]1(c2cc(NC(=O)c3cnc(OC(F)(F)C(F)(F)F)cn3)ccc2F)N=C(N)CO[C@H]1C(F)(F)F               7.31

P. COc1cnc(C(=O)Nc2ccc(F)c([C@@]3(C)N=C(N)COC3=C(F)F)c2)cn1
Q. C[C@]1(c2cc(NC(=O)c3ncc(C#N)cc3Cl)ccc2F)N=C(N)CO[C@@H]1F
Q: Hi! Which is lower in terms of pIC50, the first one P or the second one Q ? State the label of the item chosen.
A: P
